- subjectOfTest: hTAAR1 (Homo sapiens, UniProt Q96RJ0)
- Construct: expressed in transfected cells; host or cells: HEK293T (ATCC CRL-11268), transient co-transfection with a cAMP BRET biosensor
- Sequence (Q96RJ0 whole entry): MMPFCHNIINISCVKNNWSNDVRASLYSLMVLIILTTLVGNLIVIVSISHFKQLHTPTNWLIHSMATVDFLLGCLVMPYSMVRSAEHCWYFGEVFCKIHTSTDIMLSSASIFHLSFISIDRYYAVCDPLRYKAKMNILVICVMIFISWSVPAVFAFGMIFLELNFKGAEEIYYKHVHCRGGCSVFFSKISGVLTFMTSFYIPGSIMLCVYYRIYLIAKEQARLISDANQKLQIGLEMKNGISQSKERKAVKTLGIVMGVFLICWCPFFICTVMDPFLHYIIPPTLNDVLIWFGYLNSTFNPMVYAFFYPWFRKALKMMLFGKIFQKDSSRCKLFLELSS
- experiment: hTAAR1 agonism, cAMP BRET biosensor in transfected HEK-293 cells
- Assay type: cell-based
- measurementConditions: HEK293T cells transfected with hTAAR1 and cAMP BRET biosensor; screening at 10 μM, dose-response 10 nM to 100 μM; four experiments
- Procedure: The activity of these compounds was determined by means of HEK-293 cells transfected with hTAAR1, or empty vector as control, and a cAMP BRET biosensor. The applied positive control compound for agonism was tyramine hydrochloride (1 μM). BRET screening has been described in detail elsewhere. […] After an additional 5-min incubation, luminescence readings were collected using a Mithras LB943 multimodal plate reader (Berthold Technologies, Wildbad, Germany). […]
Where a name gives a salt, the structure may show the parent alone.
Hi! Just check whether EC50 is below 1 µM. Below gives 1.0, equal or above gives 0.0.

Recorded results for 5 compounds are shown here.
O=c1cc(N2CCNCC2)nc2n(Cc3ccccc3)c3ccccc3n12	1.0
O=c1cc(N2CCNCC2)nc2n(CCN3CCCC3)c3ccccc3n12	0.0
NCCc1ccc(O)cc1 [tyramine hydrochloride, reference compound]	1.0
CCn1c2ccccc2n2c(=O)cc(N3CCNCC3)nc12	1.0
CCCn1c2ccccc2n2c(=O)cc(N3CCNCC3)nc12	1.0

Inquiry: For this compound, is EC50 lower than 1 µM? O=c1cc(Cl)nc2n(Cc3cccnc3)c3ccccc3n12
Reply text: 0.0

Provenance of the data: paper PMC11052455
